Below: a set of entries, each annotated with reported LD50 at 336 h.
# Protocol summary: Dose of compound required in mg/kg to induce lethality in 50% of mice after 14 days
# Assay type: ADME, organism-based
# Measurement context: mouse, in vivo
Parameter measured: LD50 at 336 h (mg/kg)

item_smiles=CN(C)CCC(=O)N1c2ccccc2N(C)S(=O)(=O)c2ccccc21 qual== reported=521
item_smiles=CCN(CC)CC(=O)N1c2ccccc2N(C)S(=O)(=O)c2ccccc21 qual=> reported=2000
item_smiles=CN(C)CCCN1c2ccccc2N(C)S(=O)(=O)c2ccccc21 qual== reported=655
item_smiles=CN(C)CC(=O)N1c2ccccc2N(C)S(=O)(=O)c2ccccc21 qual== reported=1920
item_smiles=CN(C)CCN1c2ccccc2N(C)S(=O)(=O)c2ccccc21 qual== reported=468
item_smiles=CNCC(=O)N1c2ccccc2N(C)S(=O)(=O)c2ccccc21 qual== reported=789
item_smiles=Cc1ccc2c(c1)N(C(=O)CN(C)C)c1ccccc1S(=O)(=O)N2C qual== reported=1730
item_smiles=CN(C)CC(=O)N1c2ccc(Cl)cc2N(C)S(=O)(=O)c2ccccc21 qual== reported=1420
